experiment: Absorption maximum of the compound in THF; type: physicochemical
Attribute Measured: Activity (nm)

Compound: COC(=O)[C@@H](N)Cc1ccc(O[B-]23n4c5c6ccc(I)cc6c4N=c4c6ccc(I)cc6c(n42)=NC2=[N+]3C(=N5)c3ccc(I)cc32)cc1 (some centres undefined)
Activity (nm): 568
--
Compound: COC(=O)[C@H](Cc1ccc(O[B@@-]23n4c5c6ccc(I)cc6c4N=c4c6ccc(I)cc6c(n42)=NC2=[N+]3C(=N5)c3ccc(I)cc32)cc1)NC(=O)OC(C)(C)C
Activity (nm): 569
--
Compound: Ic1ccc2c(c1)C1=[N+]3C2=Nc2c4ccc(I)cc4c4n2[B@-]3(OCc2ccc3c(c2)OCCOCCOCCOCCOCCO3)n2c(c3cc(I)ccc3c2=N4)=N1
Activity (nm): 568
--
Compound: CCSc1ccc2c(c1)C1=Nc3c4ccc(SCC)cc4c4n3[B-]3(OCc5ccc6c(c5)OCCOCCOCCOCCOCCO6)n5c(c6cc(SCC)ccc6c5=N4)=NC2=[N+]13 (centres undefined)
Activity (nm): 578
